method: yeast display, Sf9 membrane polyspecificity reagent, FACS + sequencing; frameworks hold sequencing errors

{"residue-sequence": "KVQLVESGGGLVQAGGSLRLSCAASGGTFSYNAMGWYRQAPGKERELVAAISWSGTRTYYADSVKGRFTISRDNAKNTVYLQMNSLKPEDTAVYYCNKPPPNRGRYDYWGQCTQVTVSS", "polyreactivity (PSR sort gate)": "low polyreactivity"}
{"residue-sequence": "QVQLVESGGGLVQAGGSLRLSCAASGSTLGYYTMGWYRQAPGKERELVAAISYGGGSTYYADSVKGRFTISRDNAKNTVYLQMNSLKPEDTAVYYCAARWGKSWRGYGYWGQGTQVTVSS", "polyreactivity (PSR sort gate)": "high polyreactivity"}
{"residue-sequence": "QVQLVESGGGLVQAGGSLRLSCAASGLIDSYYAMGWYRQAPGKERELVAVITSGGSTYYADSVKGRFTISRDNAKNTVYLQMNSLNPEDTAVYYCAARVRVSYNRYHGLYAVSRGDYWGQGTQVTVSS", "polyreactivity (PSR sort gate)": "high polyreactivity"}
{"residue-sequence": "QVQLVESGGGLVQAGGSLRLSCAASGRTFGYYAMGWYRQAPGKERELVAAISTRSGSTYYADSVKGRFTISRDNAKNTVYLQMNSLKPEDTAVYYCDADSYPDYDYWGQGTQVTVSS", "polyreactivity (PSR sort gate)": "low polyreactivity"}
{"residue-sequence": "QVQLQESGGGLMQAGGSQRLSCAASGSITYYSDMGCYRQAPGKELEFVAAIGYGTTTNYADSVKGRFTTSRDNAKYTVYLQMISMKPEDTAVYYCAAYQGKGYEFYYWGQGTQVTVRS", "polyreactivity (PSR sort gate)": "low polyreactivity"}

---

method: yeast display, Sf9 membrane polyspecificity reagent, FACS + sequencing; frameworks hold sequencing errors
observed-property: polyreactivity (PSR sort gate)

{"residue-sequence": "QVQLVESGAGLVQAGGSLRLSCAASGYIFGQNAMGWYRQAPGKERELVASISDGGSTYYADSVKGRFTISRDNAKNTVYLQMNSLKPEDTAVYYCAAGQDWGEKALGAWLFDYWGHGTQVTVSS", "observed-property": "polyreactivity (PSR sort gate)", "test-value": "low polyreactivity"}
{"residue-sequence": "QVQLVESGGGLVQAGGSLRLSCAASGYTIDGYAMGWYRQAPGKERELVAGISSAGTTNYADSVKGRFTISRDNAKNTVYLQMNSLKPEDTAVYYCNKDYSTYWLYTWQITVADDYWGQGTQVTVSS", "observed-property": "polyreactivity (PSR sort gate)", "test-value": "low polyreactivity"}
{"residue-sequence": "QVQLVESGGGLVQAGGSLRLSCAASGIIFTQNGMGVYRPAPGKERELVAAISWSAGGTYYADSVKGRFTISRDNAKNTVYLQMNSLIPEDTAVYYCNARVYNVFREFNSWGQGTQVTVSS", "observed-property": "polyreactivity (PSR sort gate)", "test-value": "low polyreactivity"}
{"residue-sequence": "QVQLVESGGGLVQAGGSLRLSCAASGSNFYHYAMGWYRQAPGKERELVAAITRSGGSTYYADSVKGRFTISRDNAKNTVYLQLNSLKPEDTAVYYCAKDPDSYNFLTSNWYDYWGQGTQVTVSS", "observed-property": "polyreactivity (PSR sort gate)", "test-value": "low polyreactivity"}

---

method: yeast display, Sf9 membrane polyspecificity reagent, FACS + sequencing; frameworks hold sequencing errors
observed-property: polyreactivity (PSR sort gate)

{"residue-sequence": "QVQLVESGGGLVQAGGSLRLSCAASGFTFRWYAMGWYRQAPGKERELVAAITSSGGSTYYADSVKGRFTISRDNAKNTVYLQMNSLKPEDTAVYYCNKRFLDLSYHDYDYWGQGTQVTVSS", "test-value": "high polyreactivity"}
{"residue-sequence": "QVQLVDSGGGLVQAGGSLRLICAASGSTFNYYAMGSYRQAPGKERELVAAISYSSGRTYYADSVKGRFTISRDNSKNTVYLQMNSMKPEDTAVYYCAADRYMVSSSVHSFGYWGQGTQVTVSS", "test-value": "high polyreactivity"}
{"residue-sequence": "QVQLVESGGGLVQAGGSLRLSCAASGSSFIINAMGWYRKAPGKERELVAAITSGGSTSYADSVKGRFTISRDNAKYTVYLQMNSLNPEDTAVYYCATDHDIGYNFNRYDYWGLGTQVTVSS", "test-value": "low polyreactivity"}
{"residue-sequence": "QVRLVESGGGLVQAGGSLRLSCAASGFTFVVNAMGWYRQAPGKERELVAAITCSGGRTYYADSVKGRFTISRDNAKNTVSLQMNSLKPEDTAVYYCNAEWDDYEIEYDYWGQGTQVTVSS", "test-value": "low polyreactivity"}
{"residue-sequence": "QVQLVESGGRLVQAGGSLRLSGAASGSTIQTNVMGWYRQAPGKERELLAAISSGGSTNYADSVKGRFTISRDNAKNNVYLQMNSLKPEDTADYYCAKRWPYFRRGKDGYCGQGTQVTVSS", "test-value": "low polyreactivity"}
{"residue-sequence": "QVQLVESGGGLVQAGGSLRLSCAASGSTFYFNAMGWYRQAPGKERELVADINYSGTSTYYADSVKGRFTISRDNAKNTVYLQMTSLKPEDTAVYYCAKSLPSSNTSTSYDYWGQGTQVTVSS", "test-value": "low polyreactivity"}
{"residue-sequence": "QVQLVESGGGLVQAGGSLRLSCAASGSTFSHNAMGWYRQAPGKERELVAAISTSGSRTYYADSVKGRFTISRDNAKNSVYLQMNSLKPEDTAVYYCNTVPIYYSGYDYWGQGTQVTVSS", "test-value": "high polyreactivity"}
{"residue-sequence": "QVQLVESGGGLVQAGGSLRLSCAASGLTFWWYAMGWYRQAPGKERELVAAISSSGGSTYYADSVKGRFTISRDNAKNTVYLQMNSLKPEDTAVYYCAVASWDNYWDPYGYWGQGTQVTVSS", "test-value": "low polyreactivity"}
{"residue-sequence": "QVQLVESGGGLVQAGGSLRLSCAASGLTFTPYTMGWYRQAPGKERELVAAITSSAARTYYADSVKGRFTISRDKAKNTVYFQMNSLKPEDTAVYYCNRYRLPSGRYEYWGQGTQVTVSS", "test-value": "high polyreactivity"}
{"residue-sequence": "QVQLVESGGGLVQAGGSLRLSCAASGNISWYNAMGWYRQAPGKERELVAAITSSGSGTYYADSVKGRFTISRDNAKHTVYLQMNSLKPEDTAVYYCIADNAIRYDYWGQGTQVTVSS", "test-value": "high polyreactivity"}
{"residue-sequence": "QVQLVESVGGLVQSGGSLRLSCAASGFTFYRYGIGWYREAPGKERELVAAITSGGITYYADSVKGRFTISRDNAKNTVYLQLNSLKPEDTAVYYCNAVYPVAAIVRYDYWGQGTQVTVSS", "test-value": "high polyreactivity"}
{"residue-sequence": "QVQLVESGGGLVQAGGSLRLSCAASGFTFADYAMGWYRQAPGKEREWVAAISNGGSTTYADSVKGRFTSSRDNAKNTVYLQMNTLNPEDTAVYYCAAALSSYGWYAYGPWYGYWGQGTQVTVSS", "test-value": "high polyreactivity"}
{"residue-sequence": "QVQLVESGGGLVQAGGSLRLTCAASGSTFSKNAMGWYRQATGNERELVASISSSVGSTYYSDSVKGRFTISRDNAKNTVYLQMNSLKPEDTAVYYCATRRGRGYYYWGQGTQVTVSS", "test-value": "high polyreactivity"}
{"residue-sequence": "QVQLVESGGGLVQAGGSLRLSCAASGITFGFNAMGWYRQAPGKERELVAAITWSVGRTYYADSVKGRFTISRDNAKNTVYLQMNSLKPEDTAVYYCAKEFVAGDDYFAYDYWGQGTQVTVSS", "test-value": "low polyreactivity"}
{"residue-sequence": "QVQLVESGGGLVQAGGSLRLSCAASGRTFYNYAMGWYRQAPGKERELVAAIRGSGGSTYYADSVKGRFTISRDNAKNTVYLQMNSLKPEETAVYYCNAVSQSSEYDYWGHGTQVTVSS", "test-value": "high polyreactivity"}
{"residue-sequence": "QVQLVESGGGLVQAGGSLRLSCAASGGIFYPNVKGWYRQAPGKEREFVAAISSSSGSTYADSVKGRFTISRDNAKNTVYLQMNSLKPDDTAVFYCAAEENWWGIWVRYDYWVQGTQVTVSS", "test-value": "low polyreactivity"}
{"residue-sequence": "QVQLVESGGGLVQAGGSLRLSCAASGSTFRYYAMGWYRQAPGEEREFVASISSTGTSRYYADSVKGRFTISRDNAKNTVYLQMNSLKPEDTAVYYCAARYISYYGYNHWGQGTQVTVSS", "test-value": "high polyreactivity"}
{"residue-sequence": "QVQLVESGGGLVQAGGSLRLSCAASGFILEAYAMGWYRQAPGKERELVAAITRRGTRTYYADSVKGRFTLSRDNAKNTVYLQMNSLKPEDTAVYYCNAESRSTWVAGYDYWGQGTQVTVSS", "test-value": "high polyreactivity"}
{"residue-sequence": "QVQLVESGGGLVQAGGSLRLSCAASGFTFVINDMGWYRQAPGKERELVADITSGGDTYYADSVKGRFTISRDNAKNTVYLQLNSLKPEDTAVYYCAADIYPDWIYLLYGYWGQGTQVTVSS", "test-value": "low polyreactivity"}
{"residue-sequence": "QVQLVESGGGLVQAGGSLRLSCAASGSIFGNYAMGWYRQAPGKEREFVARISRGARTYYADSVKGRFTISRDNAKNTVYLQMNSLKPEDTAVYYCNARDYSVSYSVRFDYWGQGTQVTVSS", "test-value": "high polyreactivity"}
{"residue-sequence": "QVQLVESGGGLVQAGGTLRLSCAASGRIFPRNVLGWYRQAPGKEWELVAAISSRGTRTYYADSVKGRFTISRDNAKNTVYLQMNSLKPEDTPVYYCAADGPYEGYDDWGQGTQVTVSS", "test-value": "high polyreactivity"}
